# Target: hMAO-B (Homo sapiens, UniProt P27338)
# Sequence (P27338 whole entry): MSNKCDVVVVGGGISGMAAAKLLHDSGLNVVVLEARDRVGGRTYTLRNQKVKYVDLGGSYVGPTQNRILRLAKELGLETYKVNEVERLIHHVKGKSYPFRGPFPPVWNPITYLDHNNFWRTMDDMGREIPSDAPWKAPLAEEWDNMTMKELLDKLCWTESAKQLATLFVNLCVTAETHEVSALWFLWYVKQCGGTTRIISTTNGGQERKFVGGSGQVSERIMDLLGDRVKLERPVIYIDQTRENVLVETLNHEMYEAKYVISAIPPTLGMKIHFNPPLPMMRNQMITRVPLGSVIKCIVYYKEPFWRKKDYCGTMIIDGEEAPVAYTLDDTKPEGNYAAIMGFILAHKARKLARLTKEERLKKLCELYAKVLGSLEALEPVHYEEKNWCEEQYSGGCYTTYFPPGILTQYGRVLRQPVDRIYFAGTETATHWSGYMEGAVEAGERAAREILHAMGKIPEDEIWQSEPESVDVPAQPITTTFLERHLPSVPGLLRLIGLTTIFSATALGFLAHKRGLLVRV
# Protocol text: hMAO-B inhibition, Amplex Red fluorometric assay
# Study conditions: recombinant hMAO-B, p-tyramine substrate; mean SEM
Give measured pIC50 for each item. Keep answers brief.
Give bare numbers, as −log10 of the molar value.

Worked examples, 3 compounds total:
> print(dat)
                                   compound  readout.type  experimental.result
1  O=C(/C=C/c1ccc(O)c(O)c1)Nc1ccc(Cl)cc1[N+](=O)[O-]         pIC50                 4.35
2   O=C(/C=C/c1ccc(O)c(O)c1)Oc1ccc2ccccc2c1         pIC50                 4.67
3  Cc1ccc(C(C)C)cc1OC(=O)/C=C/c1ccc(O)c(O)c1         pIC50                 4.56

Provide the reported pIC50 of each entry below, same order.
1. O=C(O)/C=C/c1ccc(O)c(O)c1 [Caffeic acid, reference compound]
2. O=C(/C=C/c1ccc(O)c(O)c1)Nc1ccc([N+](=O)[O-])cc1Cl

1: 4.64; 2: 4.37
